experiment summary: Octanol/water partition coefficient
Assay type: physicochemical
For each entry below, report its logP value.
Note: the reply should be a number with no unit written.

Reported logP ( CC(C)[C@@H]1CC[C@@H](C)C[C@H]1C(=O)NC1CCOC1=O (mixture of isomers) [racemic Hsl] ) = 2.5

Reported logP ( COC(=O)C1CCCN1C(=O)[C@@H]1C[C@H](C)CC[C@H]1C(C)C (stereo partly drawn) [Pro Me Ester] ) = 3.3

Reported logP ( CC(C)[C@@H]1CC[C@@H](C)C[C@H]1C(=O)N[C@@H]1CCOC1=O [D-Hsl] ) = 2.5

Reported logP ( CCOC(=O)CNC(=O)[C@@H]1C[C@H](C)CC[C@H]1C(C)C [Gly Et Ester (WS-5), N-p-menthanecarbonyl glycine ethyl ester, reference compound] ) = 2.9

Reported logP ( CC(C)[C@@H]1CC[C@@H](C)C[C@H]1C(=O)N[C@H]1CCOC1=O [L-Hsl] ) = 2.5

Reported logP ( COc1ccc(NC(=O)C2CC(C)CCC2C(C)C)cc1 (stereo not drawn) [WS-12, N-p-methoxyphenyl-p-menthane-carboxamide, reference compound] ) = 5.3

Ref: patent US20110160303A1
